FYI, the data here is from paper PMC12114633.

- assay-system: α-glucosidase (Saccharomyces cerevisiae)
- Construct: purchased Shanghai Yuanye Biotechnology Co., Shanghai, China Lot No. M23HS178879 (catalogue number not given)
- Sequence (P53341 whole entry): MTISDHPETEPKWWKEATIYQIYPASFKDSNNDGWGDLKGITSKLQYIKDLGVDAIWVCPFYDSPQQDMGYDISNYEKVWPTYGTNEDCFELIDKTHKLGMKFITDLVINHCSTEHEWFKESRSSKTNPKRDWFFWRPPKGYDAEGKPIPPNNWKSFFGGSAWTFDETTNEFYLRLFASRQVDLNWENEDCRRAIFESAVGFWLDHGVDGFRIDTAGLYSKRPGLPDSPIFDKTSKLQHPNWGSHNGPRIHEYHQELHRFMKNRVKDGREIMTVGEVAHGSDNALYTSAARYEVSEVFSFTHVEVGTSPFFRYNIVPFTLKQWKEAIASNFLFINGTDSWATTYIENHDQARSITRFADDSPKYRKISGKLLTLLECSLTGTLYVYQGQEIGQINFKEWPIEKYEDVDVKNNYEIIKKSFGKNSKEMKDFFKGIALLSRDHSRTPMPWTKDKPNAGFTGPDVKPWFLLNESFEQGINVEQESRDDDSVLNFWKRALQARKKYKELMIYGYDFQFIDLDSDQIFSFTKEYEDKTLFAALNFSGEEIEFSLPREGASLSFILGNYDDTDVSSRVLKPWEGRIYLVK
- test-summary: CD spectroscopy, secondary structure of α-glucosidase (BeStSel)
- condition-label: molar ratio compound:α-glucosidase 10:1, α-glucosidase 4 μM; free enzyme 14.4
measured-quantity: α-helix (%)
// note: answer is a bare numeric in %

Known α-helix results, listed for orientation:
1) COc1ccc(C2COc3cc(O)ccc3C2)c(O)c1OC (stereo not drawn)
14.6
2) Oc1ccc([C@H]2COc3cc(O)ccc3C2)cc1
10.9

// moving on: another record for α-helix
Exercise: GET /values?readout=α-helix&item= "O=C1C[C@@H](c2ccc(O)cc2)Oc2cc(O)ccc21"
Solution: 11.7
